Target: MLE dsRBD1+2 N52A/K53E/K54E/K58E (Drosophila, UniProt P24785 1-264, N52A;K53E;K54E;K58E)
Sequence (P24785 1-264 N52A/K53E/K54E/K58E): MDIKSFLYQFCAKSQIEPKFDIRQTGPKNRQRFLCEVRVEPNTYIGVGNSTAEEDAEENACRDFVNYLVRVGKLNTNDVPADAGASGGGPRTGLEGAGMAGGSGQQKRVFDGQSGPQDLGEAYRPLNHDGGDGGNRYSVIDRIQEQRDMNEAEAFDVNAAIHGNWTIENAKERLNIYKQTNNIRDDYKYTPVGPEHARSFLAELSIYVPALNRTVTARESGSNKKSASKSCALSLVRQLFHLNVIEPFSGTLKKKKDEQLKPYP
Assay: fluorescence polarization; FP: 80 nM 3'-FAM RNA stock mixed 1:1 with protein, buffer D (composition not in material), 15 min, 20 C; EMSA: 1200 nM RNA stock mixed 1:1 with protein, buffer
Conditions: protein: recombinant; tags: SUMO tag removed by ULP1; label: 3'-FAM; hairpin, 13 nt loop (C135-C147)
pKd: −log10 of the molar value.

binder	pKd
R2H1 55mer (FAM) (structured_RNA) RNA: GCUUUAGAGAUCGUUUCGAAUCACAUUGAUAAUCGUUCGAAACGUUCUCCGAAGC	4.90
